Molecular target: recombinant human KLK5 (Homo sapiens)
Sequence (Q9Y337 23-293): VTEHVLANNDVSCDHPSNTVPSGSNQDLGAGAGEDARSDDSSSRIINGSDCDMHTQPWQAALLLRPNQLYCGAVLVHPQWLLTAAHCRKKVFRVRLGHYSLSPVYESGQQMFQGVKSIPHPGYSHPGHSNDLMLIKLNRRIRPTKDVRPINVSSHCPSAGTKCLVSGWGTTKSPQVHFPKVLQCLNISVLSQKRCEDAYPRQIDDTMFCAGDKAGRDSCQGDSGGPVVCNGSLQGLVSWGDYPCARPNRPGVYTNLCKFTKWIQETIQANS
Assay: Kallikrein (KLK) 5 enzymatic assay (Boc-VPR-AMC fluorogenic substrate)
Conditions: recombinant human KLK5 0.1 μg/well, Boc-VPR-AMC 100 μM, pH 7.5, room temperature, 1% DMSO; tested a minimum of three times
measurement_type: IC50

A selection of reference data follows.
So what does the record say about IC50 for COC(=O)N1CCC2(CC1)CC(Oc1cc(C)ccc1CC(=O)O)c1cc(-c3ccc4ccnc(N)c4c3)ccc12 (stereo not drawn) [Compound 412c] ?
< 1000 nM

Tell me the measured IC50 of Nc1nccc2ccc(-c3ccc4c(c3)C(Oc3cc(F)ccc3CC(=O)O)CC43CCCC3)cc12 (stereo not drawn) [Compound 443b] , please.
< 1000 nM

Fill blank: measured IC50 of the molecule Nc1nccc2ccc(-c3ccc4c(c3)c(COc3ccccc3CC(=O)O)nn4[C@@H]3CCOC3)cc12 [Compound 246b] is ____.
< 1000 nM

Record request: IC50 value, item CC(C)n1nc(COc2ccccc2CC(=O)O)c2cc(-c3ccc4c(c3)C(N)CO4)ccc21 (stereo not drawn) [Compound 76c]
> 10000 nM

I'd like to know its IC50. The molecule in question is COc1ccc(CC(=O)O)c(O[C@@H]2CCc3ccc(-c4ccc5ccnc(N)c5c4)cc32)c1 [Compound 419c]
< 1000 nM

Consider the molecule shown here: COc1ccc(CC(=O)O)c(OCc2c3cc(-c4ccc5ccnc(N)c5c4)ccc3nn2C2CCCCC2)c1 [Compound 16c] What is its recorded IC50?
1000 to 10000 nM

Further cases:
Param item = Nc1nccc2c(-c3ccc4nn(C5CCC5)c(COc5cc(C(F)(F)F)ccc5CC(=O)O)c4c3)cccc12 [Compound 152b] ; retrieve measured IC50.
1000 to 10000 nM

Param item = Nc1nccc2c(-c3ccc4c(c3)C(Oc3ccccc3CC(=O)O)CC43CCCCC3)cccc12 (stereo not drawn) [Compound 376f] ; retrieve measured IC50.
< 1000 nM

* * *

Molecular target: recombinant human KLK5 (Homo sapiens, UniProt Q9Y337)
Sequence (Q9Y337 23-293): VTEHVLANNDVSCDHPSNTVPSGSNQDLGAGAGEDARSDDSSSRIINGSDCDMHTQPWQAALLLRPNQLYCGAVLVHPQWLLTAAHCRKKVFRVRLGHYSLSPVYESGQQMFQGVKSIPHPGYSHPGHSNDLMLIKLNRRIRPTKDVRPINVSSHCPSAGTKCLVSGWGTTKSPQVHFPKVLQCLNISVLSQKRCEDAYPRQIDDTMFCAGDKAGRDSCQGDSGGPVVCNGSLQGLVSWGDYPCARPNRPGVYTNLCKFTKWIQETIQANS
Assay: Kallikrein (KLK) 5 enzymatic assay (Boc-VPR-AMC fluorogenic substrate)
Details: recombinant human KLK5 0.1 μg/well, Boc-VPR-AMC 100 μM, pH 7.5, room temperature, 1% DMSO; tested a minimum of three times
pIC50: −log10 of the molar value.
measurement_type: pIC50

Please review the following examples before continuing.
Which measured pIC50 value corresponds to COc1cc(-c2ccc3ccnc(N)c3c2)cc2c(COc3cc(C)ccc3CC(=O)O)coc12 [Compound 230d] ?
5.00 to 6.00

I have this compound here, CCOC(=O)N1CC[C@H](n2nc(COc3cccc(C)c3CC(=O)O)c3cc(-c4cccc5c(N)nccc45)ccc32)C1 [Compound 344b] , and I need its recorded pIC50.
> 6.00

// returns reported pIC50 for input Nc1nccc2ccc(-c3ccc4c(c3)C(Oc3ccccc3CC(=O)O)CC43CCCCC3)cc12 (stereo not shown) [Compound 391b]
> 6.00

***
What value of pIC50 has been reported for the following compound? Nc1nccc2c(-c3cc(-c4ccoc4)c4c(c3)C(Oc3ccccc3CC(=O)O)CC4)cccc12 (stereo not shown) [Compound 261b]
> 6.00

I would be grateful if you could share the reported pIC50 for Nc1nccc2c(-c3ccc4c(c3)[C@H](Oc3ccccc3CC(=O)O)C[C@H]4N3CCCCC3)cccc12 [Compound 459f] .
> 6.00

Which pIC50 is reported for this compound? CCOC(=O)N1CC[C@@H](n2nc(COc3ccccc3CC(=O)O)c3cc(-c4ccc5ccnc(N)c5c4)ccc32)C1 [Compound 342b]
> 6.00

What does the record list as pIC50 for CCC(=O)N1CC(n2nc3ccc(-c4ccc5ccnc(N)c5c4)cc3c2COc2ccccc2CC(=O)O)C1 [Compound 128c] ?
5.00 to 6.00

* * *

Biological target: recombinant human KLK5 (Homo sapiens)
Assay: Kallikrein (KLK) 5 enzymatic assay (Boc-VPR-AMC fluorogenic substrate)
Settings: recombinant human KLK5 0.1 μg/well, Boc-VPR-AMC 100 μM, pH 7.5, room temperature, 1% DMSO; tested a minimum of three times
pIC50: −log10 of the molar value.
measurement_type: pIC50

Before answering, review these 4 worked examples.
Provide the documented pIC50 with recombinant human KLK5 (Homo sapiens) as the system for Nc1nccc2c(-c3ccc4c(c3)c(COc3ccccc3CC(=O)O)nn4C3CCN(CC(=O)O)C3)cccc12 (stereo not drawn) [Compound 305b]
> 6.00

What measured pIC50 is associated with Cc1cccc(OCc2nn(CC3CCOC3)c3ccc(-c4cccc5c(N)nccc45)cc23)c1CC(=O)O (stereo not drawn) [Compound 94e] on recombinant human KLK5 (Homo sapiens)?
> 6.00

Lab note: need pIC50 for Nc1nccc2c(-c3ccc4nn(C5CN(CCO)C5)c(COc5ccccc5CC(=O)O)c4c3)cccc12 [Compound 123b] on recombinant human KLK5 (Homo sapiens), anyone have it?
5.00 to 6.00

What reported pIC50 corresponds to Cc1ccc(CC(=O)O)c(OCc2nn(C(C)C)c3ccc(-c4ccc5ccnc(N)c5c4)cc23)c1 [Compound 62c] on recombinant human KLK5 (Homo sapiens)?
> 6.00

New cases:
Request - read-out pIC50 | tested on recombinant human KLK5 (Homo sapiens) | molecule COc1ccc(CC(=O)O)c(OCc2nn(C3CC3)c3ccc(-c4ccc5ccnc(N)c5c4)cc23)c1 [Compound 66e]
> 6.00

Look up pIC50 with recombinant human KLK5 (Homo sapiens) for this molecule: N=C(N)c1cccc(-c2ccc3c(c2)c(COc2ccccc2CC(=O)O)nn3C2CCOC2)c1 (stereo not drawn) [Compound 96g]
> 6.00

Field: pIC50 (recombinant human KLK5 (Homo sapiens)). Entry: Nc1nccc2c(-c3ccc4nn(C5CCC5)c(COc5cc(OC(F)(F)F)ccc5CC(=O)O)c4c3)cccc12 [Compound 154b]
5.00 to 6.00

* * *

Target: recombinant human KLK5 (Homo sapiens, UniProt Q9Y337)
Test: Kallikrein (KLK) 5 enzymatic assay (Boc-VPR-AMC fluorogenic substrate)
Conditions: recombinant human KLK5 0.1 μg/well, Boc-VPR-AMC 100 μM, pH 7.5, room temperature, 1% DMSO; tested a minimum of three times
pIC50: −log10 of the molar value.
measurement_type: pIC50

The examples below pair each entry with its known result.
GET /values?readout=pIC50&item= Cc1cccc(OC2CC3(CCN(C(=O)OC(C)C)CC3)c3ccc(-c4ccc5ccnc(N)c5c4)cc32)c1CC(=O)O (stereo not drawn) [Compound 383c]
> 6.00

For the molecule shown here, COc1cc(C(=N)N)cc(-c2ccc3c(c2)c(COc2ccccc2CC(=O)O)nn3C(C)C)c1 [Compound 82e] , give the reported pIC50.
< 5.00

Name the recorded pIC50 for CC(C)n1nc(COc2ccccc2CC(=O)O)c2cc(-c3ccnc4c(N)nccc34)ccc21 [Compound 80d] .
5.00 to 6.00

Recorded pIC50 for CC(C)n1nc(COc2ccccc2CC(=O)O)c2cc(-c3cc4cc(N)ccc4cn3)ccc21 [Compound 38c] , please?
< 5.00

# input molecule: Cc1ccc(CC(=O)O)c(OCc2c3cc(-c4cccc5c(N)nccc45)ccc3nn2C2CCC2)c1 [Compound 18c] ; wanted: its pIC50
5.00 to 6.00

---
Fill in the blank: the reported pIC50 of CC(C)(C)OC(=O)N1CCC2(CC1)C[C@H](Oc1ccccc1CC(=O)O)c1cc(-c3ccc4ccnc(N)c4c3)ccc12 [Compound 393b] is ____.
> 6.00

# lookup: pIC50 of Nc1nccc2ccc(-c3cc4c(COc5ccccc5CC(=O)O)cccc4o3)cc12 [Compound 231f]
5.00 to 6.00

// query pIC50 value for entry Cc1ccc(CC(=O)O)c(OCc2c3cc(-c4ccc5ccnc(N)c5c4)ccc3nn2C2CCCCC2)c1 [Compound 15d]
< 5.00
